Biological target: 5-hydroxytryptamine receptor 2C (Homo sapiens, UniProt P28335)
Sequence (P28335 whole entry): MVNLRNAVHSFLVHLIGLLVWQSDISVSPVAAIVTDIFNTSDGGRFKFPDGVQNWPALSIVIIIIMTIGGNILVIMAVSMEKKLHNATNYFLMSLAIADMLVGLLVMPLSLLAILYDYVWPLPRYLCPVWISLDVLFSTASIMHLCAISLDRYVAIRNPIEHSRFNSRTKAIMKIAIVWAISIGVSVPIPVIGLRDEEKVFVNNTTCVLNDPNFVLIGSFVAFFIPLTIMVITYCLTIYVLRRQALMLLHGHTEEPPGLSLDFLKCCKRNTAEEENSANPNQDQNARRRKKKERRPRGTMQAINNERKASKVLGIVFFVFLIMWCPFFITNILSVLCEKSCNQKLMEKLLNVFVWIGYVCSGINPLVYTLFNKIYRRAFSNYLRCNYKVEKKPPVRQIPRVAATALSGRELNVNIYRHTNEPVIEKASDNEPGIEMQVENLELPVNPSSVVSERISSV
Experiment: Displacement of [3H]mesulergine from human 5HT2C receptor in human tsA201 cells
parameter: Ki (nM)

// known answers, use as guide
COc1ccc(Sc2ccc3c(c2)N2CCNCC2C3)cc1 (centres undefined) :: 57
Cc1ccc(Sc2ccc3c(c2)N2CCNCC2C3)cc1 (centres undefined) :: 68
COc1ccccc1Sc1ccc2c(c1)N1CCNCC1C2 (centres undefined) :: 41
Cc1cccc(Sc2ccc3c(c2)N2CCNCC2C3)c1 (centres undefined) :: 77
Fc1ccccc1Sc1ccc2c(c1)N1CCNCC1C2 (centres undefined) :: 49
FC(F)(F)c1cccc(Sc2ccc3c(c2)N2CCNCC2C3)c1 (centres undefined) :: 180
c1ccc(Sc2cccc(N3CCNCC3)c2)cc1 :: 91
COc1ccc(Sc2cccc(N3CCNCC3)c2)cc1 :: 74

a = FC(F)(F)c1ccc(Sc2ccc3c(c2)N2CCNCC2C3)cc1 (centres undefined)
b = Cc1ccccc1Sc1ccc2c(c1)N1CCNCC1C2 (centres undefined)
Lookup: Hi there! Just curious which has the higher Ki between a and b . Returns: label corresponding to the selected item.
Found: a

* * *

Molecular target: 5-hydroxytryptamine receptor 2C (Homo sapiens)
Assay: Displacement of [3H]mesulergine from human 5HT2C receptor in human tsA201 cells
parameter: Ki (µM)

// known answers, use as guide
FC(F)(F)c1ccccc1Sc1ccc2c(c1)N1CCNCC1C2 (centres undefined) :: 0.083
NCCc1cccc(Sc2ccccc2)c1 :: 0.15

P = Fc1ccc(Sc2ccc3c(c2)N2CCNCC2C3)cc1 (centres undefined)
Q = COc1cccc(Sc2ccc3c(c2)N2CCNCC2C3)c1 (centres undefined)
Lookup: Which entry shows the lesser value of Ki here, P or Q ? Returns: label corresponding to the selected item.
Found: P
(P: 0.061 µM, Q: 0.12 µM)
